Kindly state IC50 for each of the entries shown.
# TARGET DESC: EGFR Del19/T790M/C797S (Homo sapiens, UniProt P00533, C797S/DEL746-750/T790M)
# Sequence (P00533 with tags, fused parts or gaps DEL746-750/T790M/C797S): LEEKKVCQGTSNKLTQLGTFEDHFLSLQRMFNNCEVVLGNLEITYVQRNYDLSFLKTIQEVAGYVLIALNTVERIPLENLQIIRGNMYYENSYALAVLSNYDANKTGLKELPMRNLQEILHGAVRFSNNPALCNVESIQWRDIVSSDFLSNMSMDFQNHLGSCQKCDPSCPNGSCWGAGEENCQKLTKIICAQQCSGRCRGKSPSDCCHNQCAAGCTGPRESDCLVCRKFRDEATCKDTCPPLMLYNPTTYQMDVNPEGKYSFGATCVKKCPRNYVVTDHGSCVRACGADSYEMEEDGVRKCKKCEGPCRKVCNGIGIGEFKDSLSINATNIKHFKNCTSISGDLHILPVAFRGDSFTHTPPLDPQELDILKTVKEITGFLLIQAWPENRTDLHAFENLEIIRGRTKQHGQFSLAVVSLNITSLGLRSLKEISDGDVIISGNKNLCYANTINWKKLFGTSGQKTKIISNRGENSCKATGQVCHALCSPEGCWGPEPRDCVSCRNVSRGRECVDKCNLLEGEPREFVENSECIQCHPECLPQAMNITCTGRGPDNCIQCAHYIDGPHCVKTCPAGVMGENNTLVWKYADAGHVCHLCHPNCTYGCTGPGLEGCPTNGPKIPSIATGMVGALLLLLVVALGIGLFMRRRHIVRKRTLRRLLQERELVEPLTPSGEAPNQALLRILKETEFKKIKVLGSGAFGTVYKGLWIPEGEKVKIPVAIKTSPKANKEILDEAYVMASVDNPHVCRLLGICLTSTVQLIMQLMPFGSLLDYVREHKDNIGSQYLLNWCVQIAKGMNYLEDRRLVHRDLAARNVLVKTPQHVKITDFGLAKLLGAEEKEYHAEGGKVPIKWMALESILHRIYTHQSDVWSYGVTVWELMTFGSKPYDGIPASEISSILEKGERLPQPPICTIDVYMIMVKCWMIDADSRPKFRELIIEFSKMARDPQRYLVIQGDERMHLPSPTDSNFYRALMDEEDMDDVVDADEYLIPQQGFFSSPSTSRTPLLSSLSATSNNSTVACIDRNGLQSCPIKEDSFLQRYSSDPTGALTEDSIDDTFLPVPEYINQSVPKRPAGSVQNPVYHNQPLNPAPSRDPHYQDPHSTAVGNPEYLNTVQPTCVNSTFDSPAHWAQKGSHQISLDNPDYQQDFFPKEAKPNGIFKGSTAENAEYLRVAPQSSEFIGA
# ASSAY DETAILS: Biochemical EGFR kinase inhibition assay (Lance Ultra TR-FRET), triple mutant del19/T790M/C797S
# MEASUREMENT SETUP: IC50 Del19/T790M/C797S (nM), 100 μM ATP
Your reply should be a number followed by the unit it is expressed in.

Data request: Look up IC50 for this molecule: CC1(CO)CCN(c2cc(Nc3ccnc(-c4cnn(S(=O)(=O)C5CC5)c4)n3)ncc2C#CCN2CCS(=O)(=O)CC2)CC1 [Example 289]
Data returned: 0.2 nM

Data request: Look up IC50 for this molecule: O=S(=O)(C1CC1)n1cc(-c2nccc(Nc3cc(N4CCC(NCCO)CC4)c(C#Cc4cnn(C5CCOCC5)c4)cn3)n2)cn1 [Example 137]
Data returned: 0.4 nM

Data request: Look up IC50 for this molecule: O=S(=O)(C1CC1)N1CCC(C#Cc2cnc(Nc3ccnc(-c4cnn(S(=O)(=O)C5CC5)c4)n3)cc2N[C@H]2CC[C@@H](CO)CC2)CC1 [Example 390]
Data returned: 5.3 nM

Data request: Look up IC50 for this molecule: CC(=O)N1CCC(n2cc(C#Cc3cnc(Nc4ccnc(-c5cnn(S(=O)(=O)C6CC6)c5)n4)cc3N[C@H]3CC[C@@H](O)CC3)cn2)CC1 [Example 109]
Data returned: 1 nM

Data request: Look up IC50 for this molecule: Cn1cnc(C#Cc2cnc(Nc3ccnc(-c4cnn(S(=O)(=O)C5CC5)c4)n3)cc2N2CCC(O)CC2)c1 [Example 213]
Data returned: 0.7 nM

Data request: Look up IC50 for this molecule: CN1CCC(n2cc(C#Cc3cnc(Nc4ccnc(-c5cnn(S(=O)(=O)C6CC6)c5)n4)cc3N3CCC(C)(CO)CC3)cn2)CC1 [Example 147]
Data returned: 0.4 nM

Data request: Look up IC50 for this molecule: Cn1cc(C#Cc2cnc(Nc3ccnc(-c4cnn(S(=O)(=O)C5CC5)c4)n3)cc2N2CC3(CCNCC3)C2)cn1 [Example 155]
Data returned: 0.6 nM

Data request: Look up IC50 for this molecule: CC1(CO)CCN(c2cc(Nc3ccnc(-c4cnn(S(=O)(=O)C5CC5)c4)n3)ncc2C#Cc2cn(CC(F)F)c3ccncc23)CC1 [Example 249]
Data returned: 2.6 nM

Data request: Look up IC50 for this molecule: CC(C)(O)C1CN(c2cc(Nc3ccnc(-c4cnn(S(=O)(=O)C5CC5)c4)n3)ncc2C#Cc2cnn(CCF)c2)C1 [Example 36]
Data returned: 2.1 nM

Data request: Look up IC50 for this molecule: Nc1cccc(C#Cc2cnc(Nc3ccnc(-c4cnn(S(=O)(=O)C5CC5)c4)n3)cc2N[C@@H]2CCC[C@H](O)C2)c1 [Example 169]
Data returned: 3.1 nM

Data request: Look up IC50 for this molecule: Cc1nc(C#Cc2cnc(Nc3ccnc(-c4cnn(S(=O)(=O)C5CC5)c4)n3)cc2N[C@H]2CC[C@H](O)C2)cs1 [Example 222]
Data returned: 5.2 nM

Data request: Look up IC50 for this molecule: C=CC#Cc1cnc(Nc2ccnc(-c3cnn(S(=O)(=O)C4CC4)c3)n2)cc1N1CCC(C)(CO)CC1 [Example 277]
Data returned: 0.8 nM

Data request: Look up IC50 for this molecule: CC1(CO)CCN(c2cc(Nc3ccnc(-c4cnn(S(=O)(=O)C5CC5)c4)n3)ncc2C#Cc2ccc(CN3CCOCC3)cn2)CC1 [Example 185]
Data returned: 1.2 nM

Data request: Look up IC50 for this molecule: CC1(CO)CCN(c2cc(Nc3ccnc(-c4cnn(S(=O)(=O)C5CC5)c4)n3)ncc2C#CC2(O)CCOC2)CC1 (stereo not shown) [Example 355]
Data returned: 0.2 nM

Data request: Look up IC50 for this molecule: CC1(C#Cc2cnc(Nc3ccnc(-c4cnn(S(=O)(=O)C5CC5)c4)n3)cc2N[C@H]2CC[C@@H](O)CC2)COC1 [Example 350]
Data returned: 2.8 nM

Data request: Look up IC50 for this molecule: Cn1cc(C#Cc2cnc(Nc3ccnc(-c4cnn(S(=O)(=O)C5CC5)c4)n3)cc2N2CCC(O)C(C)(C)C2)cn1 (stereo not shown) [Example 69]
Data returned: 1.7 nM

Data request: Look up IC50 for this molecule: CC1(CO)CCN(c2cc(Nc3ccnc(-c4cnn(S(=O)(=O)C5CC5)c4)n3)ncc2C#Cc2cnc(C(F)(F)F)s2)CC1 [Example 292]
Data returned: 2.2 nM

Data request: Look up IC50 for this molecule: Cn1cc(C#Cc2cnc(Nc3ccnc(-c4cnn(S(=O)(=O)C5CC5)c4)n3)cc2N2CCC(C(C)(C)O)CC2)cn1 [Example 11]
Data returned: 1.6 nM

Data request: Look up IC50 for this molecule: CC1(CO)CCN(c2cc(Nc3ccnc(-c4cnn(S(=O)(=O)C5CC5)c4)n3)ncc2C#Cc2ccccc2)CC1 [Example 256]
Data returned: 20.6 nM

* * *

# TARGET DESC: EGFR L858R/C797S (Homo sapiens, UniProt P00533, C797S/L858R)
# Sequence (P00533 25-1210 C797S/L858R): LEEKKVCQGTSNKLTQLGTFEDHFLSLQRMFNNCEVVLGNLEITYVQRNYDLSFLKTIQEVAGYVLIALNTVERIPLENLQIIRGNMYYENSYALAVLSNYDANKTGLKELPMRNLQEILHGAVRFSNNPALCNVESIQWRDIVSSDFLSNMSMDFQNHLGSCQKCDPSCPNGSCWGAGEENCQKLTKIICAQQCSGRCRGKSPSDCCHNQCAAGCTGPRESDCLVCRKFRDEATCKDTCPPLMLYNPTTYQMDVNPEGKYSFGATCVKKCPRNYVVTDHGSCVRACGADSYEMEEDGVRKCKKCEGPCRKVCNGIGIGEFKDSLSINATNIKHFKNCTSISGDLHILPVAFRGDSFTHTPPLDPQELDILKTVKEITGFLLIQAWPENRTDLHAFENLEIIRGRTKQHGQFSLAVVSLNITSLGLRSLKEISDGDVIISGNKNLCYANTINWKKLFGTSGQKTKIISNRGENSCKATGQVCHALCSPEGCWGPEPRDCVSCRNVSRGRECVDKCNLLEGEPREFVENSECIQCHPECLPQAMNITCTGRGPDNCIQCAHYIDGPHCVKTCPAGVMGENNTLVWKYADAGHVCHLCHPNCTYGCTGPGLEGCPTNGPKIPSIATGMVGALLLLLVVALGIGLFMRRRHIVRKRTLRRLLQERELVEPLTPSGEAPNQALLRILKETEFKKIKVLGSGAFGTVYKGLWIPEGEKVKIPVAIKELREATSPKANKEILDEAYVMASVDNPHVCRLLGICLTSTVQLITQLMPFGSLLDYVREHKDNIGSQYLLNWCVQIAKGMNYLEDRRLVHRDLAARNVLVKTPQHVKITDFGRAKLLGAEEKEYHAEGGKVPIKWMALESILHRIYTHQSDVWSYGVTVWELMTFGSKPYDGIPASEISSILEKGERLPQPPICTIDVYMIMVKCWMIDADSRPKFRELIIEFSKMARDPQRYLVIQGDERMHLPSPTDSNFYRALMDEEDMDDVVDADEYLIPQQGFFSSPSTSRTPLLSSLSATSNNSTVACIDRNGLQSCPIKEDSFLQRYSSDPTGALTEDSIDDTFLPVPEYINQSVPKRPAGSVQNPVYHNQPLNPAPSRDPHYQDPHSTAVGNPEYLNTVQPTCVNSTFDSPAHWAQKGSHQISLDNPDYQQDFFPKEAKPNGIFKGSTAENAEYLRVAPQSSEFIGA
# ASSAY DETAILS: Biochemical EGFR kinase inhibition assay (Lance Ultra TR-FRET), double mutant L858R/C797S
# MEASUREMENT SETUP: IC50 L858R/C797S (nM), 100 μM ATP
Kindly state IC50 for each of the entries shown.
Your reply should be a number followed by the unit it is expressed in.

Data request: Look up IC50 for this compound: CNCC1(C)CCN(c2cc(Nc3ccnc(-c4cnn(S(=O)(=O)C5CC5)c4)n3)ncc2C#Cc2cnn(C)c2)CC1
Data returned: 1.5 nM

Data request: Look up IC50 for this compound: CC1(CO)CCN(c2cc(Nc3ccnc(-c4cnn(S(=O)(=O)C5CC5)c4)n3)ncc2C#CC2(O)CCOC2)CC1 (stereo not shown)
Data returned: 7.4 nM

Data request: Look up IC50 for this compound: CN(C)CCn1cc(C#Cc2cnc(Nc3ccnc(-c4cnn(S(=O)(=O)C5CC5)c4)n3)cc2N2CCC(NCCF)CC2)cn1
Data returned: 34.3 nM

Data request: Look up IC50 for this compound: CN(C)CC1(O)CCN(c2cc(Nc3ccnc(-c4cnn(S(=O)(=O)C5CC5)c4)n3)ncc2C#Cc2cnn(C)c2)CC1
Data returned: 78.6 nM

Data request: Look up IC50 for this compound: CC1(CO)CCN(c2cc(Nc3ccnc(-c4cnn(S(=O)(=O)C5CC5)c4)n3)ncc2C#CCN2CCS(=O)(=O)CC2)CC1
Data returned: 23.1 nM

Data request: Look up IC50 for this compound: Cn1cc(C#Cc2cnc(Nc3ccnc(-c4cnn(S(=O)(=O)C5CC5)c4)n3)cc2N2CCC(CO)CC2)c(C(F)(F)F)n1
Data returned: 37.2 nM

Data request: Look up IC50 for this compound: Cn1cnc(C#Cc2cnc(Nc3ccnc(-c4cnn(S(=O)(=O)C5CC5)c4)n3)cc2N[C@@H]2CC[C@H](O)C2)c1
Data returned: 44.7 nM

Data request: Look up IC50 for this compound: CN(C)CCNC1CCN(c2cc(Nc3ccnc(-c4cnn(S(=O)(=O)C5CC5)c4)n3)ncc2C#Cc2cnn(C(F)(F)F)c2)CC1
Data returned: 83.5 nM

Data request: Look up IC50 for this compound: Cn1cc(C#Cc2cnc(Nc3ccnc(-c4cnn(S(=O)(=O)C5CC5)c4)n3)cc2NCC(C)(C)CO)cn1
Data returned: 203 nM

Data request: Look up IC50 for this compound: O=S(=O)(C1CC1)n1cc(-c2nccc(Nc3cc(N[C@H]4CC[C@@H](O)CC4)c(C#Cc4ccc(CN5CCOCC5)cc4)cn3)n2)cn1
Data returned: 40.8 nM

* * *

# TARGET DESC: EGFR Del19/C797S (Homo sapiens, UniProt P00533, C797S/DEL746-750)
# Sequence (P00533 with tags, fused parts or gaps DEL746-750/C797S): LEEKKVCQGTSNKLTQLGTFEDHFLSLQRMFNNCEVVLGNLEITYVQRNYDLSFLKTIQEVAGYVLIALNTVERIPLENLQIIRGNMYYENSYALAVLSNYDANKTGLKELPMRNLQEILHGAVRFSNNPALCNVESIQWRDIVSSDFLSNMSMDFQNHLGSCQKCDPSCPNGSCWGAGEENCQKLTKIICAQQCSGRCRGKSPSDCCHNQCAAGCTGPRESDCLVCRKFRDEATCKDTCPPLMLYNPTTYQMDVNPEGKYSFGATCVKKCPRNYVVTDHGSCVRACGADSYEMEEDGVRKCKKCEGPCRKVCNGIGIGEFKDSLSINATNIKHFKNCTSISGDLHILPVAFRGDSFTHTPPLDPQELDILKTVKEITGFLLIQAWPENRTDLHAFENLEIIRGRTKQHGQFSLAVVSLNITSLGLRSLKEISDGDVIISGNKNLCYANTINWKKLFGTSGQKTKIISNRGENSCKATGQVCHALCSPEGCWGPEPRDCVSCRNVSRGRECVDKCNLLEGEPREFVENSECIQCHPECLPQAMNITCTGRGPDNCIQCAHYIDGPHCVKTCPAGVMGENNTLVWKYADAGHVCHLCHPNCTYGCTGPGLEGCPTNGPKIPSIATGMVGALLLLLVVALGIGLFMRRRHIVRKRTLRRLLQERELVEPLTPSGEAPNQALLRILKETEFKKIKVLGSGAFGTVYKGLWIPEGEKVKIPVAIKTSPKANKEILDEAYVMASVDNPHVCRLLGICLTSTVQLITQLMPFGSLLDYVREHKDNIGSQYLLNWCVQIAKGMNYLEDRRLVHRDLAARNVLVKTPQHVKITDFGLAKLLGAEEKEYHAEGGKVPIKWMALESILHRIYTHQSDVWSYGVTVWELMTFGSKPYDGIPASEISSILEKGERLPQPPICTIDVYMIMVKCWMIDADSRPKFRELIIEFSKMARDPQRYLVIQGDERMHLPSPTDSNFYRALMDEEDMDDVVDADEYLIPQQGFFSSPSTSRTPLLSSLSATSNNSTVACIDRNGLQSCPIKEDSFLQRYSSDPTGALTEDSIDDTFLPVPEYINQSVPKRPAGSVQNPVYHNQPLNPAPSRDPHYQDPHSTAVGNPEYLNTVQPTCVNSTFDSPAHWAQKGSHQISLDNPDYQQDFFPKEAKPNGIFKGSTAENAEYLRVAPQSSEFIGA
# ASSAY DETAILS: Biochemical EGFR kinase inhibition assay (Lance Ultra TR-FRET), double mutant del19/C797S
# MEASUREMENT SETUP: Km ATP; read-out: IC50 Del19/C797S (nM), Km ATP
IC50 strictly less than 10 nM = criterion met. Otherwise criterion not met.

Data request: Please state whether IC50 is below 10 nM for COC1(O)CCN(c2cc(Nc3ccnc(-c4cnn(S(=O)(=O)C5CC5)c4)n3)ncc2C#Cc2ncc(CN3CCOCC3)cn2)CC1 [Example 365]
Data returned: criterion met

Data request: Please state whether IC50 is below 10 nM for CC1(O)CCC(CNc2cc(Nc3ccnc(-c4cnn(S(=O)(=O)C5CC5)c4)n3)ncc2C#CC2CCCO2)CC1 (stereo not drawn) [Example 377]
Data returned: criterion not met

Data request: Please state whether IC50 is below 10 nM for CC1(C#Cc2cnc(Nc3ccnc(-c4cnn(S(=O)(=O)C5CC5)c4)n3)cc2N[C@H]2CC[C@@H](O)CC2)CC1 [Example 359]
Data returned: criterion met

Data request: Please state whether IC50 is below 10 nM for O=S(=O)(C1CC1)n1cc(-c2nccc(Nc3cc(NCC4CCC(O)CC4)c(C#CC4CCCO4)cn3)n2)cn1 (stereo not drawn) [Example 375]
Data returned: criterion not met

Data request: Please state whether IC50 is below 10 nM for O=S(=O)(C1CC1)n1cc(-c2nccc(Nc3cc(N4CCCC(O)C4)c(C#Cc4cnn(CC(F)(F)F)c4)cn3)n2)cn1 (stereo not drawn) [Example 343]
Data returned: criterion not met

Data request: Please state whether IC50 is below 10 nM for O=S(=O)(C1CC1)n1cc(-c2nccc(Nc3cc(N4C[C@@H]5[C@@H](CO)[C@@H]5C4)c(C#Cc4cnn(C(F)(F)F)c4)cn3)n2)cn1 [Example 331]
Data returned: criterion not met
